Where do the numbers come from? From the supplement of paper PMC12042874.

- methodNotes: amyloid nucleation score (Sup35N fusion, yeast selection) (log enrichment); library NNK3; higher = more nucleation; inactive = no reads after selection;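 note: zero at mode of non-aggregating sequences after 7 days selection at 30°C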
parameter: amyloid nucleation score

{"substance": "ILSCPSS", "val": "inactive"}
{"substance": "PVGKMDLRIDKNSWSYLVLD", "val": "inactive"}
{"substance": "NLDQHCRCVIGFAITYYVGY", "val": "inactive"}
{"substance": "GPRMCMQLRS", "val": "inactive"}
{"substance": "RGNKTI", "val": "inactive"}
{"substance": "HGSLMATGICWLGIFVSEVA", "val": "inactive"}
{"substance": "GLISPRYATSSWLCQPIINF", "val": "inactive"}
{"substance": "FYSECCILMGFFVGQNHSVW", "val": 1.61}
{"substance": "NCICLSGHFGHL", "val": 2.24}
{"substance": "YSIKNGYGFRQSWYKQVLKL", "val": "inactive"}
{"substance": "FNVTWKRLRIGRVGMKQKLS", "val": 0.336}
{"substance": "GWLKNNYSTYDTEKKFTATF", "val": "inactive"}
{"substance": "EFLESMNFVVTFLRWIQWTN", "val": "inactive"}
{"substance": "TACMRNVRTNIGKHTSQYLH", "val": "inactive"}
{"substance": "YGSNSLPYKTGVYVKLSCN", "val": "inactive"}
{"substance": "ARLRVVIDRCLYRGLSQLQP", "val": "inactive"}
{"substance": "DISIGQRVRCTIFSGIGPLT", "val": -0.913}

---

Each entry below lists one item and its recorded amyloid nucleation score value.
- methodNotes: amyloid nucleation score (Sup35N fusion, yeast selection) (log enrichment); library NNK2; higher = more nucleation; inactive = no reads after selection
parameter: amyloid nucleation score

{"substance": "NNLHPDYDMGIGYIIDGDPA", "parameter": "amyloid nucleation score", "val": -0.34}
{"substance": "RYKKAHSSALRCK", "parameter": "amyloid nucleation score", "val": 0.988}
{"substance": "DRLGTYSS", "parameter": "amyloid nucleation score", "val": 0.409}
{"substance": "RSIMIRHLKFRARGHTFSVN", "parameter": "amyloid nucleation score", "val": 0.143}
{"substance": "MFVVKNRGCVM", "parameter": "amyloid nucleation score", "val": -0.16}
{"substance": "NPETQYASLGRS", "parameter": "amyloid nucleation score", "val": -0.306}
{"substance": "VLRLRGLRRWI", "parameter": "amyloid nucleation score", "val": 0.638}
{"substance": "AHCIFVLDGAKFRLWCLGSG", "parameter": "amyloid nucleation score", "val": 1.11}
{"substance": "ESIVDWSYCFLTTFMSPRWA", "parameter": "amyloid nucleation score", "val": 0.193}
{"substance": "DSRMRWL", "parameter": "amyloid nucleation score", "val": 0.149}
{"substance": "YGPLNFDTSP", "parameter": "amyloid nucleation score", "val": 0.74}
{"substance": "AVLFNDTWGGFAPNWYLLLS", "parameter": "amyloid nucleation score", "val": 0.474}
{"substance": "AGILLYHPQNMHDSPLQMTR", "parameter": "amyloid nucleation score", "val": 3.71}
{"substance": "LIDNFS", "parameter": "amyloid nucleation score", "val": -0.351}
{"substance": "NEENVEVFCYRVSGSYRCYQ", "parameter": "amyloid nucleation score", "val": 4.36}
{"substance": "TCLMDGSTCTRFGGPLEPMC", "parameter": "amyloid nucleation score", "val": 0.028}
{"substance": "GNMISERSKSSVHN", "parameter": "amyloid nucleation score", "val": -1.52}
{"substance": "RHFMLSSTCPEGMNENGTFS", "parameter": "amyloid nucleation score", "val": 0.811}
{"substance": "ITIFTSWPVIMLETVMCYCN", "parameter": "amyloid nucleation score", "val": 5.32}
{"substance": "LTHQRRRLMMCI", "parameter": "amyloid nucleation score", "val": 0.283}
{"substance": "NYLMWVITSTYWRHGRESWA", "parameter": "amyloid nucleation score", "val": 3.03}
{"substance": "SSMSLWFMHYRNSKSCL", "parameter": "amyloid nucleation score", "val": -0.721}
{"substance": "KSLDYFSECRDSPNML", "parameter": "amyloid nucleation score", "val": -0.757}
{"substance": "VNSLYCM", "parameter": "amyloid nucleation score", "val": -0.447}
{"substance": "KLGWTRLTPNVAHFHLIVGL", "parameter": "amyloid nucleation score", "val": 0.583}
{"substance": "TVIRNLVICSFEYCRDMITR", "parameter": "amyloid nucleation score", "val": 8.2}
{"substance": "LLCSPEGVYGKCTGGFRQTL", "parameter": "amyloid nucleation score", "val": 0.581}
{"substance": "PDSGVSDESHLRCLPGVPRI", "parameter": "amyloid nucleation score", "val": 0.066}
{"substance": "NLCDLDRGNEYAWWRVFMRS", "parameter": "amyloid nucleation score", "val": 4.38}
{"substance": "NQGLRWLTDRDILRIVEVGM", "parameter": "amyloid nucleation score", "val": 0.027}
{"substance": "HKAFVAAVERWAEYLDADVS", "parameter": "amyloid nucleation score", "val": -0.585}
{"substance": "MAVKRGIHRQADPGITWDTE", "parameter": "amyloid nucleation score", "val": 5.17}
{"substance": "TERLICMRTSMPSFIYVFWD", "parameter": "amyloid nucleation score", "val": -0.847}
{"substance": "STASLHGVMLGMRLKNPLGV", "parameter": "amyloid nucleation score", "val": -0.97}
